Origin of the recorded values: PubChem BioAssay (NCI)

- Tested on: 786-0 renal
- testDescription: NCI tumour cell line growth inhibition, 48 h
endpointLabel: TGI

> print(dat)
                                    compound  endpointlabel     result
 1  CCCCCCCCCCCCCCCC(=O)OCC(C[As](=O)(O)O)OC(=O)CCCCCCCCCCCCCCC (configuration not stated)            TGI   > 100 µM
 2                COc1ccc(C[N+](C)(C)N)cc1OC            TGI   > 100 µM
 3  CC(=O)O[C@H]1CCC2[C@@H]3CC[C@]4(C)CC(=O)C=C[C@]4(C)C3CC[C@@]21C (some centres not stated)            TGI  > 78.2 µM
 4  CCOC(=O)c1c(N2CCOCC2)[nH]c(=O)c(C(c2c(Cl)cccc2Cl)c2c(O)c(C(=O)OCC)c(N3CCOCC3)[nH]c2=O)c1O            TGI    6.47 µM
 5             N#Cc1[nH]c(=O)n(-c2ccccc2)c1N            TGI    > 10 µM
 6       COC(=O)C12CC3CC(CC(C(=O)O)(C3)C1)C2            TGI   > 100 µM
 7  CCCC1=C(CC)C(C(=O)Nc2c(C)cccc2C)=NC(S)N1 (configuration not stated)            TGI   > 100 µM
 8  CN(C(=O)Cc1cccc(N=C=S)c1)[C@H]1CCCC[C@@H]1N1CCCC1            TGI    28.6 µM
 9  COC(=O)Nc1nc2ccc(C3(c4ccc(F)cc4)OCCO3)cc2[nH]1            TGI   > 100 µM
10  Cc1cc(NS(=O)(=O)c2ccc(Nc3c4ccccc4nc4c(C(=O)N5CCN(CCO)CC5)cccc34)cc2)no1            TGI   > 100 µM

Prompt: Record request: TGI value, item Nc1nc(Nc2cccnc2)sc1C(=O)c1ccccc1F
Response: > 34.9 µM

Prompt: And for OCC1OC(n2cnc3c2NC=NC[C@H]3O)C(Cl)C1O (some centres not stated) ?
Response: > 100 µM

Prompt: Next: CCOC(=O)c1cn2c(n1)sc1cc(Cl)ccc12
Response: 26.4 µM
